Each recorded value in this set is attributed to PubChem BioAssay (EPA / NIEHS).

- ASSAY: ACEA_ER_AUC_viability: ACEA Biosciences xCELLigence Real-Time Cell Analysis on Estrogen Receptor Agonism for Viability (AID 2283782);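 note: continuous compound exposure with impedance area under curve over 80 h; hit means loss of impedance signal meaning reduced cell growth or viability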
Inconclusive results are not listed. Activity calls are given as the source filed them. Rule for the calls: active = hit-call score of the fitted dose curve at least 0.9, where 1 is the maximum; inconclusive = response in the unintended direction; inactive = score below 0.9.
Labels: 1 = active, -1 = inactive

>>> category_label("CNC(=O)Oc1cccc(N=CN(C)C)c1")
1
>>> category_label("COP(=S)(OC)Oc1ccc([N+](=O)[O-])cc1")
-1
>>> category_label("CC(C)OC(=O)Nc1cccc(Cl)c1")
1
>>> category_label("CC1(c2ccc(Oc3ccccc3)cc2)OC(=O)N(Nc2ccccc2)C1=O (stereo not given)")
1
>>> category_label("CCN(CC)C(=O)SCc1ccc(Cl)cc1")
1
